Biological target: intracellular domain of human Tie2 (GST fusion protein) (Homo sapiens (Human), UniProt Q02763)
Sequence (Q02763 776-1124): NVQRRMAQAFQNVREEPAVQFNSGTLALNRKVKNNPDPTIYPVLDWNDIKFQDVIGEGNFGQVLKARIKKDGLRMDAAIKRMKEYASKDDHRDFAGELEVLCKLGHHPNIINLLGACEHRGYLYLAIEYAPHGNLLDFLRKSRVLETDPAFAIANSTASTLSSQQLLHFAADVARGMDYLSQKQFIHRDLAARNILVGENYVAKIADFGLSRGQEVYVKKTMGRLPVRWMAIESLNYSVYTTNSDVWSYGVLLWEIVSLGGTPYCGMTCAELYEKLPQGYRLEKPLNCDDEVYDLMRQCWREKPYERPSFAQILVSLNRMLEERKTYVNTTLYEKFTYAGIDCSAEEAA
Experiment: Tie2 kinase assay (Tie2-TR-FRET)
Details: ATP concentration 1 mM; in some cases means of several independent determinations
READOUT: IC50

Query: What measured IC50 goes with Cc1ccc(NC(=O)c2cc(C#N)cc(S(F)(F)(F)(F)F)c2)cc1-n1ccn2nc(-c3cn[nH]c3)cc12 [Example 85] ?
Reply: 20 nM
